Test target: UniProt:P10275
Sequence (P10275 1-920) 1: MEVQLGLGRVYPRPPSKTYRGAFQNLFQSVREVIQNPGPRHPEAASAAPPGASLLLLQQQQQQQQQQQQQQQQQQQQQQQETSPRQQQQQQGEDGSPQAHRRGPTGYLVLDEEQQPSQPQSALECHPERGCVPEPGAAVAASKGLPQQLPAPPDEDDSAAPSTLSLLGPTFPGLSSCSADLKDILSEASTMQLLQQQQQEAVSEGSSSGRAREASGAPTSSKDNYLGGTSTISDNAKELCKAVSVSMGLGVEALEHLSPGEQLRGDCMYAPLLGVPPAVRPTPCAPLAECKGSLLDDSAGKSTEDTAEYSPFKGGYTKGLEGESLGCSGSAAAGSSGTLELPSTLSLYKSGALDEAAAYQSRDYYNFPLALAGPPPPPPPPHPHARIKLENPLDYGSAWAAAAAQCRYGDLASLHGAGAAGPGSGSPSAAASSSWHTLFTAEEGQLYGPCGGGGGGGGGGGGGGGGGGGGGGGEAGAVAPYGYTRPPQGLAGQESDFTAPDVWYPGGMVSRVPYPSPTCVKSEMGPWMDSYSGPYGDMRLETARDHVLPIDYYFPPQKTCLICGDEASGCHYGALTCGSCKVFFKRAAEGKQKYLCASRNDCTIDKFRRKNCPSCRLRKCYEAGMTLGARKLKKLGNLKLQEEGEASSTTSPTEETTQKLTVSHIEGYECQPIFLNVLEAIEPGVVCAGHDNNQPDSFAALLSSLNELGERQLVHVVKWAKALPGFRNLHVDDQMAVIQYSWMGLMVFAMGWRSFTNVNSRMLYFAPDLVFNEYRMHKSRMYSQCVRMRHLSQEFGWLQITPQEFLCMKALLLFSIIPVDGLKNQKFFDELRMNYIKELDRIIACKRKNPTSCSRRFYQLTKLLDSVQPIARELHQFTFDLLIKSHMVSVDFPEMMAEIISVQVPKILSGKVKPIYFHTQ
Sequence (P10275 1-920) 2: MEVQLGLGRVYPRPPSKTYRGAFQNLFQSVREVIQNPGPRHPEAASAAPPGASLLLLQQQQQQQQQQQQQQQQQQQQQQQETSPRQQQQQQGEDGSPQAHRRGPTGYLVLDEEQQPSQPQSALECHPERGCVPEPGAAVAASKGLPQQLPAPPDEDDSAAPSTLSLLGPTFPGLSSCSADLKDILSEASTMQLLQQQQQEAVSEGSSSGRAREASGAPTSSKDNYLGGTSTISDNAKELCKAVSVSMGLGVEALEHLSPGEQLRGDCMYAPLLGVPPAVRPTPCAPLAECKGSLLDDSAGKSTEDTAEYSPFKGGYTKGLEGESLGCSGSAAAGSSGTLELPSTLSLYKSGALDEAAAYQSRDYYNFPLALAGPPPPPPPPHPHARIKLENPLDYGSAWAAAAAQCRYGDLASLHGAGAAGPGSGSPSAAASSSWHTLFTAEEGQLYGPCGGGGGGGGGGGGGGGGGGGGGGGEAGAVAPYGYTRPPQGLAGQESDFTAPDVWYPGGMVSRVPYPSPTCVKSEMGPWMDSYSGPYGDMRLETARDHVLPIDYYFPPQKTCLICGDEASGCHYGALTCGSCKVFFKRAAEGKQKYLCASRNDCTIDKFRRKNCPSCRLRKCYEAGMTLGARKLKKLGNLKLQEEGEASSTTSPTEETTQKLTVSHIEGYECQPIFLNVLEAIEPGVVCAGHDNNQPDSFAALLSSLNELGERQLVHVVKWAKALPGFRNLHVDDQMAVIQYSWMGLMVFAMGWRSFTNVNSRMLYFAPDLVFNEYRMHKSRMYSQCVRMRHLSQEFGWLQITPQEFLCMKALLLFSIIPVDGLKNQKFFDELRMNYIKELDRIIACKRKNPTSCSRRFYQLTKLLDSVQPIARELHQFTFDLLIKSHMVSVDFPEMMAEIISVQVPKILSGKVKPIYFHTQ
Protocol description: AR2 assay, antagonist mode: disruption of R1881 (10 nM)-induced AR homodimerization in HepG2-AR2 cells
Assay type: cell-based
Experimental parameters: spid AR_antagonist; sheet antagonist_fits
Records here are stratified by max_med (maximum median response); strata: lo = under 30, med = from 30 up to 70, hi = 70 and over

In: Hello team, could you let me know which band the following compound falls into: CC/C(=C(\c1ccc(O)cc1)c1ccc(OCCN(C)C)cc1)c1ccccc1 [Afimoxifene (4-Hydroxytamoxifen)]
Out: hi

In: What do we get for `CC1(C)[C@H](C(=O)O[C@H](C#N)c2cccc(Oc3ccccc3)c2)[C@@H]1C=C(Br)Br` ?
Out: med

In: What about this compound? `O=[N+]([O-])c1c(Cl)c(Cl)c(Cl)c(Cl)c1Cl`
Out: med

In: Next up: CCOC(=O)CC(SP(=S)(OC)OC)C(=O)OCC (stereo not drawn)
Out: med

In: Consider next the compound `CNC(=O)O/N=C(\SC)C(=O)N(C)C` in the same way.
Out: lo

In: Would you kindly repeat that for CC(C)=CC1C(C(=O)OCN2C(=O)C3=C(CCCC3)C2=O)C1(C)C (stereo not drawn) ?
Out: lo

In: Request: CC(C)(O)C(=O)Nc1ccc([N+](=O)[O-])c(C(F)(F)F)c1 [Hydroxyflutamide]
Out: lo

In: Another compound to look at: `CCCCOC(=O)c1ccc(O)cc1`
Out: med

In: Param item: `COP(=O)(OC)O/C(=C\Cl)c1cc(Cl)c(Cl)cc1Cl`
Out: hi
